- assay_protocol: AUC (0 to infinity) in Sprague-Dawley rat at 50 mg/kg, iv administered as single dose
- Format: ADME, organism-based
- Set-up: dose 50 mg/kg, time infinity, route intravenous
- cond: in vivo
property_name: AUC(0-inf) (ng·h/mL)
Please respond with the number in ng·h/mL and leave the unit unwritten.

Look at this molecule and give its reported AUC(0-inf). O[C@H](C[C@H]1c2c(F)cccc2-c2cncn21)[C@H]1CC[C@H](O)CC1
35000

====

- assay_protocol: AUC (0 to infinity) in dog at 1 mg/kg, iv administered as single dose
- Format: ADME, organism-based, Canis lupus familiaris
- Design: dose 1 mg/kg, route intravenous, time infinity
- cond: in vivo
property_name: AUC(0-inf) (ng·h/mL)
Answer in ng·h/mL, number only, no unit symbol.

# AUC(0-inf) lookup, item O[C@H](C[C@H]1c2c(F)cccc2-c2cncn21)[C@H]1CC[C@H](O)CC1 [NAVOXIMOD]
282

====

- assay_protocol: Cmax in dog at 5 mg/kg, po administered as single dose
- Format: ADME, organism-based, Canis lupus familiaris
- Set-up: dose 5 mg/kg, route oral
- cond: in vivo
property_name: Cmax (ng/mL)
Respond with the bare value in ng/mL.

Which Cmax is reported for this molecule? O[C@H](C[C@H]1c2c(F)cccc2-c2cncn21)[C@H]1CC[C@H](O)CC1
132

====

- assay_protocol: AUC (0 to infinity) in dog at 15 mg/kg, po administered as single dose
- Format: ADME, organism-based, Canis lupus familiaris
- Set-up: dose 15 mg/kg, route oral, time infinity
- cond: in vivo
property_name: AUC(0-inf) (ng·h/mL)
Value expressed in ng·h/mL; do not type the unit.

Quick one: AUC(0-inf) of O[C@H](C[C@H]1c2c(F)cccc2-c2cncn21)[C@H]1CC[C@H](O)CC1 ?
1040

====

- assay_protocol: Toxicity in dog administered twice daily for 28 days with 2 week recovery
- Parameters: species or system Canis lupus familiaris
- cond: in vivo
property_name: NOAEL at 28 days (mg/kg)
Give the value, in units of mg/kg, as a plain number.

Field request: NOAEL at 28 days | item: O[C@H](C[C@H]1c2c(F)cccc2-c2cncn21)[C@H]1CC[C@H](O)CC1
200

====

- assay_protocol: Tmax in Sprague-Dawley rat at 10 to 50 mg/kg, po administered as single dose
- Format: ADME, organism-based
- cond: in vivo
property_name: Tmax (min)
Give just the number in min; leave the unit off.

Which Tmax is listed for O[C@H](C[C@H]1c2c(F)cccc2-c2cncn21)[C@H]1CC[C@H](O)CC1 ?
30

====

- assay_protocol: Half life in Sprague-Dawley rat at 25 mg/kg, iv administered as single dose
- Assay type: ADME, organism-based
- cond: in vivo
property_name: half-life (h)
Numbers only here, please. The scale is h.

Returns the measured half-life for the input compound. Input: O[C@H](C[C@H]1c2c(F)cccc2-c2cncn21)[C@H]1CC[C@H](O)CC1
1.25

====

- assay_protocol: Half life in C57Bl6 mouse at 50 mg/kg, iv administered as single dose
- Format: ADME, organism-based
- cond: in vivo
property_name: half-life (min)
The reply should contain only the number, in min.

Entry O[C@H](C[C@H]1c2c(F)cccc2-c2cncn21)[C@H]1CC[C@H](O)CC1 [NAVOXIMOD] has what half-life?
180
